assay: qHTS assay for re-activators of p53 using a Luc reporter: Hit Validation with no p53 Expressed; conditions: p53-null cells, luciferase reporter counter-screen; series mostly up to 46.1 µM
Inconclusive results are not listed. Calls of active or inactive are those of the source. The call rests on the fitted dose curve; in most records, active means well fitted activation curve with a large enough effect; inconclusive means small, poorly fitted or top-dose-only effect; inactive means no such curve, though single readings can be large or run the other way.
Hi there, use one of these labels in your reply, thanks! active, inactive

Exercise: Kindly provide the recorded test outcome for the following compound: CCOC(=O)c1c(C)[nH]c(C(=O)CSc2ccccc2)c1C
Solution: inactive

Exercise: Kindly provide the recorded test outcome for the following compound: O=C(Nc1ccc(NC(=O)C23CC4CC(CC(C4)C2)C3)cn1)c1ccco1
Solution: inactive

Exercise: Kindly provide the recorded test outcome for the following compound: Cc1cccc(NC(=O)c2ccccn2)c1C
Solution: inactive

Exercise: Kindly provide the recorded test outcome for the following compound: COc1ccc(NC(=O)COC(=O)C23CC4CC(CC(O)(C4)C2)C3)cc1Cl
Solution: inactive

Exercise: Kindly provide the recorded test outcome for the following compound: CC(=O)c1cc2c(C)c(C(=O)c3ccccc3)oc2cc1O
Solution: inactive

Exercise: Kindly provide the recorded test outcome for the following compound: Cc1ccc2oc(-c3ccc(C)c(NC(=S)NC(=O)c4cccs4)c3)nc2c1
Solution: inactive

Exercise: Kindly provide the recorded test outcome for the following compound: COc1ccc(N2CCN(CC(=O)Nc3ccc(C)cc3)CC2)cc1
Solution: inactive

Exercise: Kindly provide the recorded test outcome for the following compound: CSC1=NCCN1C(=O)c1ccc(Br)o1
Solution: inactive

Exercise: Kindly provide the recorded test outcome for the following compound: CCCCCCC1CC(/C(C)=N\NC(N)=O)OC1=O (stereo not given)
Solution: inactive

Exercise: Kindly provide the recorded test outcome for the following compound: N#CC1=C(N)N2C(=C(C#N)C13CCCCC3)SC1CCCCC12O (stereo not given)
Solution: inactive

Exercise: Kindly provide the recorded test outcome for the following compound: O=C(NNC(=O)C1CCCO1)c1ccccc1Cl (stereo not given)
Solution: inactive

Exercise: Kindly provide the recorded test outcome for the following compound: CCOc1ccc(/C=N/NC(=O)CN2CCSCC2)cc1
Solution: inactive

Exercise: Kindly provide the recorded test outcome for the following compound: C=CCNC(=S)N/N=C(\C)c1ccccn1
Solution: inactive

Exercise: Kindly provide the recorded test outcome for the following compound: COc1ccccc1/C=C/C(=O)Nc1ccc2c(c1)CCC2
Solution: active

Exercise: Kindly provide the recorded test outcome for the following compound: Cc1nn(-c2ccccc2)c(/N=C/c2ccccc2O)c1-c1ccccc1
Solution: inactive

Exercise: Kindly provide the recorded test outcome for the following compound: Cc1ccc(OCC(=O)c2cc(C)n(C)c2C)c([N+](=O)[O-])n1
Solution: inactive

Exercise: Kindly provide the recorded test outcome for the following compound: CC1CCCC(C)N1C(=O)CSc1nnc(-c2cccs2)o1 (stereo not given)
Solution: inactive

Exercise: Kindly provide the recorded test outcome for the following compound: CC(C)(C)OC(=O)N1CCC(C(=O)Nc2ccc3c(c2)CCC3)CC1
Solution: inactive

Exercise: Kindly provide the recorded test outcome for the following compound: O=C(Nc1cccnc1Cl)c1cc(-c2ccccc2O)on1
Solution: inactive

Exercise: Kindly provide the recorded test outcome for the following compound: COCc1[nH]nc2c1C(c1cccc(OC)c1)C(C#N)=C(N)O2 (stereo not given)
Solution: inactive

Exercise: Kindly provide the recorded test outcome for the following compound: COc1ccc(N2CCN(CCCNC(=O)C3(S(=O)(=O)c4ccc(Cl)cc4)CC3)CC2)cc1
Solution: inactive

Exercise: Kindly provide the recorded test outcome for the following compound: CCCCCc1nnc(NC(=O)C2CCCO2)s1 (stereo not given)
Solution: inactive

Exercise: Kindly provide the recorded test outcome for the following compound: CC(=O)c1cccc(NC(=O)c2sc(Cl)nc2C)c1
Solution: inactive

Exercise: Kindly provide the recorded test outcome for the following compound: C/C(=N\N=c1/scc(C)n1Cc1ccco1)c1cccc([N+](=O)[O-])c1
Solution: inactive

Exercise: Kindly provide the recorded test outcome for the following compound: CCOc1ccc(NC(=O)/C=C/c2ccccc2)c([N+](=O)[O-])c1
Solution: inactive

Exercise: Kindly provide the recorded test outcome for the following compound: c1ccc(-c2nnc(-c3ccccn3)nc2NC2CCCCC2)cc1
Solution: inactive

Exercise: Kindly provide the recorded test outcome for the following compound: CC1CCN(C2=C(NS(=O)(=O)c3ccc(Br)cc3)C(=O)c3ccccc3C2=O)CC1
Solution: inactive

Exercise: Kindly provide the recorded test outcome for the following compound: O=C(Nc1nnc(-c2cccs2)o1)c1cccc(Oc2ccccc2)c1
Solution: inactive

Exercise: Kindly provide the recorded test outcome for the following compound: CCN(CC)CCN1C(=O)C(=O)/C(=C(/O)c2cnn(-c3ccccc3)c2C)C1c1ccc(C)o1 (stereo not given)
Solution: inactive

Exercise: Kindly provide the recorded test outcome for the following compound: Cc1ccc(/C=C2\SC(=S)N(CCCC(=O)Nc3nccs3)C2=O)cc1
Solution: inactive

Exercise: Kindly provide the recorded test outcome for the following compound: CCOC(=O)c1ccc2ncc(C(=O)OCC)c(NCc3ccco3)c2c1
Solution: inactive

Exercise: Kindly provide the recorded test outcome for the following compound: CC(C)CNC(=S)Nc1ccc(Oc2ccccc2)cc1
Solution: inactive

Exercise: Kindly provide the recorded test outcome for the following compound: O=C(NNC(=S)NC1CCCCC1)c1cccs1
Solution: inactive

Exercise: Kindly provide the recorded test outcome for the following compound: CCOC(=O)C1=C(C)Nc2ncnn2C1c1c[nH]c2ccccc12 (stereo not given)
Solution: inactive

Exercise: Kindly provide the recorded test outcome for the following compound: Cc1cc(C(=O)COc2ncnc3sccc23)c(C)n1C1CC1
Solution: inactive

###

test: qHTS assay for re-activators of p53 using a Luc reporter: Hit Validation with no p53 Expressed; settings: p53-null cells, luciferase reporter counter-screen; series mostly up to 46.1 µM
Records with an inconclusive call do not appear. Calls of active or inactive are those of the source. Calls come from the whole dose curve; as a rule, active = well fitted activation curve with a large enough effect; inconclusive = small, poorly fitted or top-dose-only effect; inactive = no such curve, though single readings can be large or run the other way.
Hi there, use one of these labels in your reply, thanks! active, inactive

Exercise: Kindly provide the recorded test outcome for the following compound: CC(C)(C)NC(=O)C(c1ccc(Cl)cc1)N(CCO)C(=O)c1snc(C(N)=O)c1N (stereo not drawn)
Solution: inactive

Exercise: Kindly provide the recorded test outcome for the following compound: CCOc1ccc2cc(C#N)c(SCC(=O)OC)nc2c1
Solution: inactive

Exercise: Kindly provide the recorded test outcome for the following compound: CC(Cc1ccccc1)NC(=O)c1ccc([N+](=O)[O-])cc1 (stereo not drawn)
Solution: inactive

Exercise: Kindly provide the recorded test outcome for the following compound: COc1ccc(N=C(N)SCc2ccccn2)cc1
Solution: inactive

Exercise: Kindly provide the recorded test outcome for the following compound: CC(C)(C)Nc1ncnc2c1cnn2-c1ccccc1
Solution: inactive

Exercise: Kindly provide the recorded test outcome for the following compound: Cc1nn2cc(-c3ccc(-c4ccccc4)cc3)nc2s1
Solution: active

Exercise: Kindly provide the recorded test outcome for the following compound: O=C(Cc1ccccc1)NCc1ccc(F)cc1
Solution: inactive

Exercise: Kindly provide the recorded test outcome for the following compound: COc1ccc(N2CCN(C3CCCN(Cc4cccc(OC)c4)C3)CC2)cc1 (stereo not drawn)
Solution: inactive
